This listing pairs compounds with measured IC50.
- TARGET: HCV NS3/4A 1b protease D168A (Hepatitis C virus genotype 1b, UniProt Q9WMX2, D1194A)
- Construct: 10× stocks of NS3/4A protease enzyme from Bioenza (Mountain View, Calif.); purchased Bioenza (Mountain View, Calif.)
- ASSAY_PROTOCOL: HCV protease FRET assay (IC50_APP), Example 16
- Type: biochemical
REPORTED_PROPERTY: IC50

{"COMPOUND": "C/C=C(\\C)C(=O)CC[C@H](NC(=O)OC(C)(C)C)C(=O)N1CC(OC(=O)N2Cc3cccc(F)c3C2)C[C@H]1C(=O)N[C@]1(C(=O)NS(=O)(=O)C2CC2)C[C@H]1CC (stereo partly shown)", "TARGET": "HCV NS3/4A 1b protease D168A (Hepatitis C virus genotype 1b, UniProt Q9WMX2, D1194A)", "RESULT": "100 to 1000 nM"}
{"COMPOUND": "C=C[C@@H]1C[C@]1(NC(=O)[C@@H]1CC(OC(=O)N2Cc3cccc(F)c3C2)CN1C(=O)C(CN(C)C(=O)/C=C/CN(C)C)NC(=O)OC(C)(C)C)C(=O)NS(=O)(=O)C1CC1 (stereo partly shown)", "TARGET": "HCV NS3/4A 1b protease D168A (Hepatitis C virus genotype 1b, UniProt Q9WMX2, D1194A)", "RESULT": "1000 to 10000 nM"}
{"COMPOUND": "CC(C)(C)OC(=O)N[C@H]1CN(C(=O)CCl)CCC/C=C\\[C@@H]2C[C@@]2(C(=O)N(C(=O)CCl)S(=O)(=O)C2CC2)NC(=O)[C@@H]2CC(OC(=O)N3Cc4cccc(F)c4C3)CN2C1=O (stereo partly shown)", "TARGET": "HCV NS3/4A 1b protease D168A (Hepatitis C virus genotype 1b, UniProt Q9WMX2, D1194A)", "RESULT": "100 to 1000 nM"}
{"COMPOUND": "C=C[C@@H]1C[C@]1(NC(=O)[C@@H]1CC(OC(=O)N2Cc3cccc(F)c3C2)CN1C(=O)[C@@H](C)Nc1ccnc(Cl)n1)C(=O)NS(=O)(=O)C1CC1 (stereo partly shown)", "TARGET": "HCV NS3/4A 1b protease D168A (Hepatitis C virus genotype 1b, UniProt Q9WMX2, D1194A)", "RESULT": "1000 to 10000 nM"}

----------
- TARGET: HCV NS3/4A 1b protease A156T (Hepatitis C virus genotype 1b, UniProt Q9WMX2, A1182T)
- Construct: 10× stocks of NS3/4A protease enzyme from Bioenza (Mountain View, Calif.); purchased Bioenza (Mountain View, Calif.)
- ASSAY_PROTOCOL: HCV protease FRET assay (IC50_APP), Example 16
- Format: biochemical
- Protocol: The following protocol was used to generate “apparent” IC50 (IC50 APP) values as depicted in Table 6, below. […] Protease reactions were immediately started after enzyme addition with the addition of 45 μL of the FRET substrate and monitored for 60-90 minutes at λex485/λem520 in a Synergy^4 plate reader from BioTek (Winooski, Vt.). […]
pIC50: −log10 of the molar value.
This listing pairs compounds with measured pIC50.
REPORTED_PROPERTY: pIC50

{"COMPOUND": "C=CC(=O)N(C)C[C@H](NC(=O)OC1CCCC1)C(=O)N1C[C@H](OC(=O)N2Cc3cccc(F)c3C2)C[C@H]1C(=O)N[C@]1(C(=O)NS(=O)(=O)C2CC2)C[C@H]1C=C", "RESULT": "> 8.00"}
{"COMPOUND": "C=CC(=O)NC[C@H](NC(=O)OC(C)(C)C)C(=O)N1C[C@H](OC(=O)N2Cc3cccc(F)c3C2)C[C@H]1C(=O)N[C@]1(C(=O)NS(=O)(=O)C2CC2)C[C@H]1C=C", "RESULT": "7.00 to 8.00"}
{"COMPOUND": "C=CC(=O)N(C)C[C@H](NC(=O)OC(C)(C)C)C(=O)N1C[C@H](OC(=O)N2Cc3cccc(F)c3C2)C[C@H]1C(=O)N[C@]1(C(=O)NS(=O)(=O)C2CC2)C[C@H]1C=C", "RESULT": "> 8.00"}
{"COMPOUND": "C=C[C@@H]1C[C@]1(NC(=O)[C@@H]1C[C@@H](OC(=O)N2Cc3cccc(F)c3C2)CN1C(=O)[C@@H](NC(=O)OC(C)(C)C)[C@@H](C)OC(=O)/C=C/C)C(=O)NS(=O)(=O)C1CC1", "RESULT": "7.00 to 8.00"}
{"COMPOUND": "C=C[C@@H]1C[C@]1(NC(=O)[C@@H]1CC(OC(=O)N2Cc3cccc(F)c3C2)CN1C(=O)[C@H](CCC(=O)/C=C/C)NC(=O)OC(C)(C)C)C(=O)NS(=O)(=O)C1CC1 (stereo partly shown)", "RESULT": "> 8.00"}
{"COMPOUND": "C=C[C@@H]1C[C@]1(NC(=O)[C@@H]1C[C@@H](OC(=O)N2Cc3cccc(F)c3C2)CN1C(=O)[C@H](CNS(=O)(=O)C=C)NC(=O)OC(C)(C)C)C(=O)NS(=O)(=O)C1CC1", "RESULT": "> 8.00"}
{"COMPOUND": "C=C[C@@H]1C[C@]1(NC(=O)[C@@H]1C[C@@H](OC(=O)N2Cc3cccc(F)c3C2)CN1C(=O)[C@H](CCC(=O)C=C(C)C)NC(=O)OC(C)(C)C)C(=O)NS(=O)(=O)C1CC1", "RESULT": "7.00 to 8.00"}
{"COMPOUND": "C=C[C@@H]1C[C@]1(NC(=O)[C@@H]1C[C@@H](OC(=O)N2Cc3cccc(F)c3C2)CN1C(=O)CNC(=O)/C=C/C)C(=O)NS(=O)(=O)C1CC1", "RESULT": "6.00 to 7.00"}
{"COMPOUND": "C=C[C@@H]1C[C@]1(NC(=O)[C@@H]1C[C@@H](OC(=O)N2Cc3cccc(F)c3C2)CN1C(=O)[C@H](COC(=O)C(=C)NC(=O)OC(C)(C)C)NC(=O)OC(C)(C)C)C(=O)NS(=O)(=O)C1CC1", "RESULT": "> 8.00"}
{"COMPOUND": "C=C[C@@H]1C[C@]1(NC(=O)[C@@H]1CC(OC(=O)N2Cc3cccc(F)c3C2)CN1C(=O)[C@H](CC(=O)C=C(C)C)NC(=O)OC(C)(C)C)C(=O)NS(=O)(=O)C1CC1 (stereo partly shown)", "RESULT": "> 8.00"}
